- experimentalTarget: T1, PSMA Fab (006 PSMA Fab)
- T1 construct: also called Anti-PSMA Fab; anti-PSMA Fab
- assayMethodText: clonal phage ELISA; biotinylated PSMA Fab on neutravidin plate, wells pre-incubated with PSMA antigen (competitor), anti-M13-HRP detection
Where no end group is shown, it is not given here.
endpoint: Phage binding ELISA signal, Anti-PSMA Fab in presence of PSMA antigen
API note: the answer field is a bare number with no unit suffix.

Recorded results for 2 binders are shown here.
DQKWCIPLWMCETR [Phage-2722]    0.0727
HEKWCVPSWMCDDW (cysteine pairing not given here; also: displayed on bacteriophage as fusion to pIII, linker not given here) [Phage-2714]    0.0669

Look at this binder and give its reported Phage binding ELISA signal, Anti-PSMA Fab in presence of PSMA antigen. VYKWCTPSWMCADP (cysteine pairing not given here; also: displayed on bacteriophage as fusion to pIII, linker not given here) [Phage-2715]
0.0676
